Source: patent US5011838A

Experiment: Evaluation of the lethal dose50 (LD50), acute toxicity
Settings: in vivo, ip; mouse; 14 days observation
parameterMeasured: LD50 at 336 h

CCOCCn1c(CCN(C)C)nc2cccnc21	> 100 mg/kg
CCOCCn1c(CCCN2CCOCC2)nc2cccnc21.O=C(O)/C=C/C(=O)O.O=C(O)/C=C/C(=O)O	> 100 mg/kg
CC(C)(C)c1ccc(C(O)CCCN2CCC(C(O)(c3ccccc3)c3ccccc3)CC2)cc1 (stereo not shown) [Terfenadine, reference compound]	620 mg/kg

Turning now to a further record.
// query LD50 at 336 h value for entry `CCOCCn1c(CCCN(C)C)nc2cccnc21`
> 100 mg/kg
